Reference for the values: patent US20230183352A1

# Measurement target: T1, Claudin 18.2 (CLDN18.2), expressed on CHOS-CLDN 18.2 / HEK293-CLDN 18.2 / HCC827-CLDN 18.2 cells (human, UniProt P56856-2 1-261)
# T1 construct: whole, on cells; The species is not repeated for the CHOS-CLDN 18.2 cells; also called claudin-18A2
# Protocol details: FACS, CHOS-CLDN18.2 cells, 5 µg/ml
Measured endpoint: FACS reading

| Binder | Value observed |
| --- | --- |
| QP14451440 (antibody, human IgG1, kappa, V domains shown, Humanized from QP192193; also called QP14401445) VH: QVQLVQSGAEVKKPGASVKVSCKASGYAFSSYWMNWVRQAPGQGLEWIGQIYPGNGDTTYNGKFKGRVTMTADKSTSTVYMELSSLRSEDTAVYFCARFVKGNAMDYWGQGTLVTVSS VL: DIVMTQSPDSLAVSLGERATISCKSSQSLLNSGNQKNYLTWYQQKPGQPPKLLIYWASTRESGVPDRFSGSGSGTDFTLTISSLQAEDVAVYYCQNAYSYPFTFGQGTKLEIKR | 139000 |
| QP192193 (antibody, human IgG1, V domains shown, Chimeric; also called 40F1; mouse-derived chimeric antibody QP192193) VH: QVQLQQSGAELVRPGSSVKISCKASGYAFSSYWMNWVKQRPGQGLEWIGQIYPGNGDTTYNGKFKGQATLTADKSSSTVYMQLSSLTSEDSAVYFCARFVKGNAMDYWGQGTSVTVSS VL: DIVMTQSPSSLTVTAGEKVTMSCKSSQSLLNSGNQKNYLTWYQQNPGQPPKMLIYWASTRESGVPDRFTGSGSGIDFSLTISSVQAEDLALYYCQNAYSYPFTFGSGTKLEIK | 177000 |
| QP14441441 (antibody, human IgG1, kappa, V domains shown, Humanized from QP192193) VH: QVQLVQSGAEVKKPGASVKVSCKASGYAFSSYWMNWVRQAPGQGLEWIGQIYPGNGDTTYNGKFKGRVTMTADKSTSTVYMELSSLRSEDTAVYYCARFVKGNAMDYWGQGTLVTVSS VL: DIVMTQSPDSLAVSLGERATISCKSSQSLLNSGNQKNYLTWYQQKPGQPPKLLIYWASTRESGVPDRFSGSGSGIDFTLTISSVQAEDVAVYYCQNAYSYPFTFGQGTKLEIKR | 151000 |
| QP14451442 (antibody, human IgG1, kappa, V domains shown, Humanized from QP192193) VH: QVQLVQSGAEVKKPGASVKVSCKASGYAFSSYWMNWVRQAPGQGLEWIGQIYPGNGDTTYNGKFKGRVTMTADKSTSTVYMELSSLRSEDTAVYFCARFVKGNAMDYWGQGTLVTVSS VL: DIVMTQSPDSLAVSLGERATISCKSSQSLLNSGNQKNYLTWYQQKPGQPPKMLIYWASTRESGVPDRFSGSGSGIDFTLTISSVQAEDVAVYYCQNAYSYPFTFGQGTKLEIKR | 138000 |
